molecular target: PTPN11-E76K mutant enzyme (Homo sapiens (Human), UniProt Q06124, E76K); test: PTPN11 Enzymatic Assay (DiFMUP phosphatase activity); settings: full length PTPN11-E76K, DiFMUP substrate; read-out: IC50, inhibition of PTPN11-E76K mutant enzyme
Sequence (Q06124 whole entry E76K): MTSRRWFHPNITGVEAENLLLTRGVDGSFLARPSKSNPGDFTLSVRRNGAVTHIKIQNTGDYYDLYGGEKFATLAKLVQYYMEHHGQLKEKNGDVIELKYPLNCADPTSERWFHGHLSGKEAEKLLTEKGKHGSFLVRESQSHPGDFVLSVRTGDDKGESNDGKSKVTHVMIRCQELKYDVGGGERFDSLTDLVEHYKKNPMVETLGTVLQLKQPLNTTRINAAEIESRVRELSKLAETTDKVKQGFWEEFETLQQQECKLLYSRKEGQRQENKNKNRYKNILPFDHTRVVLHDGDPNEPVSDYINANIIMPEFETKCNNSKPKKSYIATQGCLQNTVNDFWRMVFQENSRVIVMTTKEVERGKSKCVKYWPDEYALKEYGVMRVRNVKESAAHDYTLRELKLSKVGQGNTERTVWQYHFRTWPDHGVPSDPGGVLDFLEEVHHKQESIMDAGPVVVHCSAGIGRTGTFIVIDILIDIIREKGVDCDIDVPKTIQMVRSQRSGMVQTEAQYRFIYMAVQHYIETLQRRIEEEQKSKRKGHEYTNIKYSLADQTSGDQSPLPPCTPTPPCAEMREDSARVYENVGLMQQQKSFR
Field: label. Allowed values: Criterion met (IC50 < 90 nM) or Criterion not met (IC50 >= 90 nM).

Study these solved cases before continuing.
>  <Compound>
Cc1nc(N2CCC3(CC2)CO[C@@H](C)[C@H]3N)cc(=O)n1-c1cccc(F)c1F [Example 5]

>  <Class Name>
Criterion not met

$$$$
>  <Compound>
Cc1cccc(-n2c(C)nc(N3CCC4(CC3)CO[C@@H](C)[C@H]4N)cc2=O)c1Cl (atropisomer, axis not shown; (Sa)) [Example 13a]

>  <Class Name>
Criterion not met

$$$$
>  <Compound>
COc1cccc(-n2c(C)nc(N3CCC4(CC3)CO[C@@H](C)[C@H]4N)cc2=O)c1Cl (atropisomer, axis not shown; (Sa)) [Example 7a]

>  <Class Name>
Criterion not met

$$$$
>  <Compound>
Cc1nc(N2CCC3(CC2)CO[C@@H](C)[C@H]3N)c(Cl)c(=O)n1-c1ccnc(Cl)c1Cl [Example 17]

>  <Class Name>
Criterion not met

$$$$

Pending compound:
Query: Given the entry Cc1c(N2CCC3(CC2)CO[C@@H](C)[C@H]3N)nc(C)n(-c2ccc(Oc3ccn(C)n3)c(Cl)c2Cl)c1=O (atropisomer, axis not shown; (Ra)) [Example 18b] , would its reported IC50 be below 90 nM?
Result: Criterion met
